The measurements presented in this section are drawn from paper PMC3794980.

Overview of reported pIC50 across a group of molecules:
# System: DRB1*0802 (Homo sapiens, UniProt P01903+P01911, A100R/A103L/A169T/F76Y/H45Y/I96F/K41T/L162R/M171V/P40S/Q125H/Q178H/Q39Y/Q99D/R218S/R42G/S66Y/V115G/W38E)
# Test name: biochemical
pIC50: −log10 of the molar value.

{"columns": ["Smiles string", "pIC50"],
 "data": [
  ["CC(C)C[C@H](NC(=O)[C@@H](NC(=O)CNC(=O)[C@H](CC(N)=O)NC(=O)[C@H](CO)NC(=O)[C@H](Cc1c[nH]c2ccccc12)NC(=O)[C@H](CC(C)C)NC(=O)[C@@H](NC(=O)[C@H](Cc1c[nH]cn1)NC(=O)[C@H](CO)NC(=O)[C@H](CCCCN)NC(=O)[C@@H]1CCCN1C(=O)[C@@H](N)Cc1c[nH]c2ccccc12)[C@@H](C)O)C(C)C)C(=O)N[C@@H](CCC(=O)O)C(=O)N[C@@H](CO)C(=O)O", 5.32],
  ["CC[C@H](C)[C@H](NC(=O)[C@H](CCC(=O)O)NC(=O)CNC(=O)[C@@H](NC(=O)[C@@H](NC(=O)[C@@H](NC(=O)[C@H](CCC(N)=O)NC(=O)[C@H](Cc1ccccc1)NC(=O)[C@@H](NC(=O)CNC(=O)[C@@H]1CCCN1C(=O)[C@H](CCSC)NC(=O)[C@@H](NC(=O)[C@H](CCC(N)=O)NC(=O)[C@@H](N)Cc1ccccc1)[C@@H](C)O)[C@@H](C)O)[C@@H](C)O)[C@@H](C)O)[C@@H](C)O)C(=O)O", 6.25],
  ["CC[C@H](C)[C@H](NC(=O)[C@H](Cc1c[nH]c2ccccc12)NC(=O)[C@H](Cc1ccc(O)cc1)NC(=O)CNC(=O)[C@H](CCSC)NC(=O)[C@H](CC(=O)O)NC(=O)[C@H](C)NC(=O)[C@H](Cc1c[nH]cn1)NC(=O)[C@@H](NC(=O)[C@H](C)N)C(C)C)C(=O)N[C@@H](CCC(=O)O)C(=O)N[C@@H](CO)C(=O)N[C@@H](CCC(N)=O)C(=O)N[C@@H](CCCCN)C(=O)N[C@@H](CC(N)=O)C(=O)O", 4.89]
]}

---

# System: DRB4*0101 (Homo sapiens, UniProt P01903+P13762, G164S)
# Test name: biochemical

{"columns": ["Compound", "System", "Readout unit", "IC50"],
 "data": [
  ["CC[C@H](C)[C@H](NC(=O)[C@H](C)NC(=O)[C@H](CC(N)=O)NC(=O)[C@H](CO)NC(=O)[C@H](C)NC(=O)[C@H](CC(C)C)NC(=O)[C@H](CCCNC(=N)N)NC(=O)[C@H](CC(C)C)NC(=O)[C@H](CC(=O)O)NC(=O)[C@H](CCCNC(=N)N)NC(=O)[C@@H](N)CCCNC(=N)N)C(=O)N[C@@H](CS)C(=O)N[C@@H](CO)C(=O)N[C@@H](C)C(=O)N[C@H](C(=O)N1CCC[C@H]1C(=O)N[C@H](C(=O)O)C(C)C)C(C)C [NS5 769-785]", "DRB4*0101 (Homo sapiens, UniProt P01903+P13762, G164S)", "µM", 0.212],
  ["CC[C@H](C)[C@H](NC(=O)[C@H](CC(C)C)NC(=O)[C@H](CO)NC(=O)[C@H](C)NC(=O)[C@H](CCCCN)NC(=O)[C@H](CCC(=O)O)NC(=O)[C@H](CC(C)C)NC(=O)[C@H](CCCCN)NC(=O)[C@H](Cc1c[nH]c2ccccc12)NC(=O)[C@@H](N)CO)C(=O)N[C@@H](CCC(=O)O)C(=O)N[C@H](C(=O)N[C@@H](CCCCN)C(=O)N[C@H](C(=O)N[C@@H](CS)C(=O)O)[C@@H](C)O)C(C)C [NS1 209-223]", "DRB4*0101 (Homo sapiens, UniProt P01903+P13762, G164S)", "µM", 5.02],
  ["CC[C@H](C)[C@H](NC(=O)[C@H](CC(C)C)NC(=O)[C@H](CCC(=O)O)NC(=O)[C@@H](N)Cc1c[nH]cn1)C(=O)N[C@@H](CCSC)C(=O)N[C@@H](CCCCN)C(=O)N[C@@H](CC(=O)O)C(=O)NCC(=O)N[C@@H](CCCNC(=N)N)C(=O)N[C@@H](CCCCN)C(=O)N[C@@H](CC(C)C)C(=O)N[C@H](C(=O)N[C@H](C(=O)N1CCC[C@H]1C(=O)N[C@@H](CS)C(=O)N[C@@H](CCCNC(=N)N)C(=O)O)C(C)C)C(C)C [NS5 714-729]", "DRB4*0101 (Homo sapiens, UniProt P01903+P13762, G164S)", "µM", 4.02],
  ["CC(C)C[C@H](NC(=O)[C@H](CCCNC(=N)N)NC(=O)[C@H](CCCCN)NC(=O)CNC(=O)[C@@H](N)CC(N)=O)C(=O)N[C@@H](CCC(=O)O)C(=O)N1CCC[C@H]1C(=O)N[C@@H](CC(N)=O)C(=O)N[C@@H](Cc1c[nH]c2ccccc12)C(=O)N[C@@H](C)C(=O)N[C@@H](CO)C(=O)N[C@H](C(=O)N[C@@H](CCCCN)C(=O)N[C@@H](CCCCN)C(=O)N[C@@H](CC(=O)O)C(=O)O)C(C)C [NS3 61-75]", "DRB4*0101 (Homo sapiens, UniProt P01903+P13762, G164S)", "µM", 7.03],
  ["C[C@@H](O)[C@H](NC(=O)[C@H](CO)NC(=O)[C@H](CO)NC(=O)[C@H](Cc1c[nH]cn1)NC(=O)[C@H](CCC(=O)O)NC(=O)[C@H](CCC(=O)O)NC(=O)[C@@H](N)CCCCN)C(=O)N[C@@H](Cc1c[nH]c2ccccc12)C(=O)N[C@@H](Cc1c[nH]cn1)C(=O)N[C@@H](Cc1ccc(O)cc1)C(=O)N[C@@H](CC(=O)O)C(=O)N[C@@H](CC(=O)O)C(=O)N[C@@H](CCC(=O)O)C(=O)N[C@@H](CC(N)=O)C(=O)N1CCC[C@H]1C(=O)N[C@@H](Cc1ccc(O)cc1)C(=O)N[C@@H](CCCCN)C(=O)O [NS5 284-300]", "DRB4*0101 (Homo sapiens, UniProt P01903+P13762, G164S)", "µM", 14.1]
]}

---

# System: DRB5*0101 (Homo sapiens, UniProt P01903+Q30154)
# Test name: biochemical
pIC50: −log10 of the molar value.
Overview of reported pIC50 across a group of compounds:

{"columns": ["Smiles string", "System", "pIC50"],
 "data": [
  ["CC[C@H](C)[C@H](NC(=O)[C@H](CO)NC(=O)[C@@H]1CCCN1C(=O)[C@@H](NC(=O)[C@H](Cc1ccccc1)NC(=O)[C@H](Cc1c[nH]c2ccccc12)NC(=O)[C@@H](NC(=O)[C@@H](NC(=O)[C@H](CCCCN)NC(=O)CN)[C@@H](C)O)C(C)C)C(C)C)C(=O)N[C@@H](CCCCN)C(=O)N[C@@H](C)C(=O)NCC(=O)N[C@@H](CC(N)=O)C(=O)N[C@@H](CC(=O)O)C(=O)O", "DRB5*0101 (Homo sapiens, UniProt P01903+Q30154)", 6.56],
  ["CC[C@H](C)[C@H](NC(=O)[C@@H]1CCCN1C(=O)[C@H](CCC(=O)O)NC(=O)[C@H](CC(C)C)NC(=O)[C@@H](N)CS)C(=O)N[C@@H](CCC(=O)O)C(=O)NCC(=O)N[C@@H](CCCCN)C(=O)N[C@H](C(=O)N[C@H](C(=O)N[C@@H](CCC(N)=O)C(=O)N[C@@H](Cc1ccc(O)cc1)C(=O)N[C@@H](CCC(=O)O)C(=O)N[C@@H](CC(N)=O)C(=O)N[C@@H](CC(C)C)C(=O)O)C(C)C)C(C)C", "DRB5*0101 (Homo sapiens, UniProt P01903+Q30154)", 4.88],
  ["CC[C@H](C)[C@H](NC(=O)[C@H](CCCCN)NC(=O)[C@H](CCCCN)NC(=O)[C@H](CCC(=O)O)NC(=O)[C@H](CC(C)C)NC(=O)[C@@H]1CCCN1C(=O)[C@H](Cc1c[nH]cn1)NC(=O)[C@@H]1CCCN1C(=O)[C@H](CC(N)=O)NC(=O)[C@H](CCC(=O)O)NC(=O)[C@H](CC(C)C)NC(=O)[C@H](CC(=O)O)NC(=O)[C@H](C)NC(=O)[C@@H](N)CCCCN)C(=O)N[C@H](C(=O)N[C@@H](CCC(N)=O)C(=O)N[C@@H](Cc1c[nH]c2ccccc12)C(=O)O)[C@@H](C)O", "DRB5*0101 (Homo sapiens, UniProt P01903+Q30154)", 4.81]
]}
